Assay: Equilibrium (saturated) solubility of SA in oils, surfactants and cosurfactants (isothermal method)
Format: physicochemical
Conditions: Transcutol (co-surfactant), organic solvent or mixture, thermodynamic from solid, in Transcutol (co-surfactant), room temperature, read-out: Saturated solubility of sinapic acid
READOUT NAME: solubility at 3 days

Please report the recorded solubility at 3 days for COc1cc(/C=C/C(=O)O)cc(OC)c1O .
193 mg/mL

###

Experiment: Equilibrium (saturated) solubility of SA in oils, surfactants and cosurfactants (isothermal method)
Format: physicochemical
Details: soybean oil, oil or lipid, thermodynamic from solid, in soybean oil, room temperature, read-out: Saturated solubility of sinapic acid
READOUT NAME: solubility at 3 days (µg/mL)
Give the number; µg/mL is assumed, so skip it.

Please report the recorded solubility at 3 days for COc1cc(/C=C/C(=O)O)cc(OC)c1O .
1250

###

Experiment: Equilibrium (saturated) solubility of SA in oils, surfactants and cosurfactants (isothermal method)
Assay type: physicochemical
Settings: propylene glycol (co-surfactant), organic solvent or mixture, thermodynamic from solid, in propylene glycol (co-surfactant), room temperature, read-out: Saturated solubility of sinapic acid
READOUT NAME: solubility at 3 days

Please report the recorded solubility at 3 days for COc1cc(/C=C/C(=O)O)cc(OC)c1O [Sinapic acid] .
58.4 mg/mL

###

Biological target: 3CL Protease, tagged (SARS-CoV-2) (Mpro) (Severe acute respiratory syndrome coronavirus 2, UniProt P0DTD1)
Construct: 3CL Protease, tagged (SARS-CoV-2) Assay Kit; unspecified tag (printed only as 'tagged'); purchased BPS Bioscience, Inc. 79955-1
Assay: Mpro enzyme assay (3CL Protease FRET assay kit)
Assay type: biochemical
Conditions: excitation 360 nm, emission 460 nm, read-out: IC50, in vitro Mpro inhibitory activity
READOUT NAME: IC50
// return the numeric value with its unit appended

Please report the recorded IC50 for COc1cc(/C=C/C(=O)O)cc(OC)c1O .
6.74 µM

###

Assay: Equilibrium (saturated) solubility of SA in oils, surfactants and cosurfactants (isothermal method)
Type: physicochemical
Conditions: Cremophore El (surfactant), thermodynamic from solid, in Cremophore El (surfactant), room temperature, read-out: Saturated solubility of sinapic acid
READOUT NAME: solubility at 3 days
// return the numeric value with its unit appended

Please report the recorded solubility at 3 days for COc1cc(/C=C/C(=O)O)cc(OC)c1O .
138 mg/mL

###

Test: Equilibrium (saturated) solubility of SA in oils, surfactants and cosurfactants (isothermal method)
Assay type: physicochemical
Details: Tween 80 (surfactant), thermodynamic from solid, in Tween 80 (surfactant), room temperature, read-out: Saturated solubility of sinapic acid
READOUT NAME: solubility at 3 days (mg/mL)
Give the number; mg/mL is assumed, so skip it.

Please report the recorded solubility at 3 days for COc1cc(/C=C/C(=O)O)cc(OC)c1O .
78.8

###

Experiment: Equilibrium (saturated) solubility of SA in oils, surfactants and cosurfactants (isothermal method)
Assay type: physicochemical
Settings: PEG 400 (co-surfactant), organic solvent or mixture, thermodynamic from solid, in PEG 400 (co-surfactant), room temperature, read-out: Saturated solubility of sinapic acid
Method: The equilibrium solubility of SA was studied in various oils, surfactants, and cosurfactants. Oils of different saturation degrees (medium- or long-chain triglycerides) were utilized to create an SNE to test their solubilization and nano-emulsification ability. […] SA concentration was measured spectrophotometrically at 322 nm after the supernatant was diluted with methanol using a magnetic stirrer at 500 rpm for 2 min at room temperature. […]
READOUT NAME: solubility at 3 days (mg/mL)
Give the number; mg/mL is assumed, so skip it.

Please report the recorded solubility at 3 days for COc1cc(/C=C/C(=O)O)cc(OC)c1O [Sinapic acid] .
102

###

Test: Equilibrium (saturated) solubility of SA in oils, surfactants and cosurfactants (isothermal method)
Assay type: physicochemical
Conditions: almond oil, oil or lipid, thermodynamic from solid, in almond oil, room temperature, read-out: Saturated solubility of sinapic acid
READOUT NAME: solubility at 3 days (µg/mL)
Give the number; µg/mL is assumed, so skip it.

Please report the recorded solubility at 3 days for COc1cc(/C=C/C(=O)O)cc(OC)c1O .
1710

###

Assay: Equilibrium (saturated) solubility of SA in oils, surfactants and cosurfactants (isothermal method)
Format: physicochemical
Conditions: olive oil, oil or lipid, thermodynamic from solid, in olive oil, room temperature, read-out: Saturated solubility of sinapic acid
READOUT NAME: solubility at 3 days (µg/mL)
Give the number; µg/mL is assumed, so skip it.

Please report the recorded solubility at 3 days for COc1cc(/C=C/C(=O)O)cc(OC)c1O .
7110
